Test system: HCC 2998
Experiment: NCI tumour cell line growth inhibition, 48 h
Active and inactive are the calls of the source. Rule as the data show it: active = GI50 up to about 1.1 µM and inactive = higher.
Outcome codes: label 1 = active, label 0 = inactive

{"molecule": "O=C(/C=C/c1ccccc1)OCC1=C[C@@H](O)[C@@H]2C=CO[C@@H](OC3OC(CO)C(O)C(O)C3O)[C@H]12 (some centres not stated)", "group": "label 0"}
{"molecule": "CCOC(=O)c1ccc(-c2cccs2)n1C", "group": "label 0"}
{"molecule": "Nc1nc(N)c(-c2ccc(Cl)cc2)c(CCC(=O)Nc2cccc(C(F)(F)F)c2)n1", "group": "label 0"}
{"molecule": "CC(C)(C)[Si](C)(C)OCC1OC(n2ccc(=O)[nH]c2=O)C(O[Si](C)(C)C(C)(C)C)[C@@]12O[C@H]2C(N)=O (some centres not stated)", "group": "label 0"}
{"molecule": "COc1ccc(OC(=O)CC2Cc3cc(OC)c(OC)c(OC)c3-c3ccc(SC)c(=O)cc32)cc1 (configuration not stated)", "group": "label 1"}
{"molecule": "C=C1C(=O)O[C@H]2C1C[C@@H](O)/C(C)=C/CC[C@@]1(C)O[C@H]21 (some centres not stated)", "group": "label 0"}
{"molecule": "CCOP(=O)(OCC)c1cc2cc(O)ccc2oc1=O", "group": "label 0"}
{"molecule": "COC(=O)CCC(C)[C@H]1CCC2C3C(C[C@H](OC(C)=O)[C@@]21C)[C@@]1(C)CCC2(C[C@H]1C[C@H]3OC(C)=O)OOC1(CCCCC1)OO2 (some centres not stated)", "group": "label 0"}
{"molecule": "CCOC(=O)NC(=O)c1cn(CCOCCOC(=O)NCCCCCCNC(=O)OCCOCCn2cc(C(=O)NC(=O)OCC)c(=O)[nH]c2=O)c(=O)[nH]c1=O", "group": "label 0"}
{"molecule": "CN(CCNC(=O)c1cn(C)c2c1ccc1cc(Cl)c(Cl)cc12)CCNC(=O)c1cn(C)c2c1ccc1cc(Cl)c(Cl)cc12", "group": "label 0"}
{"molecule": "CC1=CC(c2ccccc2)OP1(=O)c1ccccc1 (configuration not stated)", "group": "label 0"}
{"molecule": "Cc1cccc2oc3c(c(=O)c12)CC(O)C(C)(C)O3 (configuration not stated)", "group": "label 0"}
{"molecule": "CO[C@H]1Nc2c(ccc(C)c2O)C(=O)N2C=C(/C=C/C(N)=O)C[C@@H]12", "group": "label 1"}
{"molecule": "Cc1ccc(-n2cc(-c3ccc(Cl)cc3)c3c2N=CN2N=C(c4ccco4)NC32)cc1 (configuration not stated)", "group": "label 0"}
{"molecule": "CCC(C)C1NC(=O)C2CCCN2C(=O)C(CC2CO2)OC(=O)CCNC(=O)C(C)N(C)C(=O)C(C(C)C)N(C)C1=O (configuration not stated)", "group": "label 0"}
{"molecule": "COc1cc(/C=C/C(=O)Oc2ccc(NC(C)=O)cc2)ccc1C(=O)O/C=C/c1ccccc1", "group": "label 0"}
{"molecule": "C[C@H]1C(=O)O[C@@H]1[C@H]1COC(C)(C)O1", "group": "label 0"}

* * *

Test system: LOX IMVI
Assay: NCI tumour cell line growth inhibition, 48 h
Active and inactive are the calls of the source. No stated cut-off is given here; in the data, active = GI50 up to about 1.1 µM and inactive = higher.

{"compound": "O=C1c2cc3c(cc2CC1Br)CCC3 (stereo unspecified)", "GI50": "0.369 µM (active)"}
{"compound": "COc1cc(/C=C/C(=O)Oc2ccc(NC(C)=O)cc2)ccc1C(=O)O/C=C/c1ccccc1", "GI50": "> 100 µM (inactive)"}
{"compound": "O=C=C=P(c1ccccc1)(c1ccccc1)c1ccccc1", "GI50": "40.1 µM (inactive)"}
{"compound": "O=C(O)C1=CCCc2ccc3ccccc3c21", "GI50": "> 100 µM (inactive)"}
{"compound": "CS(=O)(=O)O.[Ag]", "GI50": "3.09 µM (inactive)"}
{"compound": "C/C1=C\\[C@H](C)C[C@H](C)OC(=O)C[C@H](c2ccc(O)cc2)NC(=O)[C@H](Cc2ccc(O)c(I)c2)N(C)C(=O)[C@H](C)NC(=O)[C@@H](C)C1", "GI50": "0.00411 µM (active)"}

* * *

Test system: K562
Experiment: NCI tumour cell line growth inhibition, 48 h
The source made the active and inactive calls. No stated cut-off is given here; in the data, active = GI50 up to about 1.1 µM and inactive = higher. Positions of bridges follow the written chain, without caps; N, C: chain ends. Residues, ends and D or L forms follow the SMILES beside them.

{"compound": "COc1cc(/C=C/C(=O)Oc2ccc(NC(C)=O)cc2)ccc1C(=O)O/C=C/c1ccccc1", "target.under.test": "K562", "GI50": "> 31.6 µM (inactive)"}
{"compound": "CC(=O)Nc1ccc(-c2nnc(SCC(=O)Nc3ccc(Cl)cc3)o2)cc1", "target.under.test": "K562", "GI50": "5.83 µM (inactive)"}
{"compound": "CC(=O)Oc1ccccc1-c1cc2ccccc2oc1=O", "target.under.test": "K562", "GI50": "> 100 µM (inactive)"}
{"compound": "CN(C)CCCc1c2ccccc2nc2ccc(Cl)cc12", "target.under.test": "K562", "GI50": "19.1 µM (inactive)"}
{"compound": "CCOC(=O)Cc1ccc2c(c1O)C(=O)c1c(ccc(CC(=O)OCC)c1O)C2=O", "target.under.test": "K562", "GI50": "> 100 µM (inactive)"}
{"compound": "Cc1ccc([S@+]([O-])c2occc2C=O)cc1", "target.under.test": "K562", "GI50": "1.85 µM (inactive)"}
{"compound": "CC(=O)N(C)C(C(=O)N1CC(C)CC1C(=O)N(C)C1C(=O)NC(CC(C)C)C(=O)N2CC(C)CC2C(=O)NC(CC(C)C)C(=O)N(C)C(C(C)C)C(=O)N2CCCC2C(=O)N(C)C(CC(C)C)C(=O)NCC(=O)OC1C)C(C)C (stereo not drawn)", "target.under.test": "K562", "GI50": "> 100 µM (inactive)"}
{"compound": "CCC(CO)Nc1nc(NCc2ccccc2)c2ncn(C(C)C)c2n1 (stereo not drawn) [(RS)-ROSCOVITINE]", "target.under.test": "K562", "GI50": "46.6 µM (inactive)"}
{"compound": "O=C1CCC2(c3ccc(Cl)cc3)Nc3cc(Cl)ccc3N12 (stereo not drawn)", "target.under.test": "K562", "GI50": "2.31 µM (inactive)"}
{"compound": "CCNC(=O)C(O)C1(O)CCC2[C@@H]3CCC4=CC(=O)C=C[C@]4(C)C3[C@@H](O)C[C@@]21C (stereo partly drawn)", "target.under.test": "K562", "GI50": "> 91 µM (inactive)"}
{"compound": "O=C(NC(=O)c1cn(CCNCCO)c(=O)[nH]c1=O)OCc1ccccc1", "target.under.test": "K562", "GI50": "> 100 µM (inactive)"}
{"compound": "O=C1CSC2(CC(/C=C/c3ccccc3O)=NN2c2cccc(S(=O)(=O)O)c2)N1c1nc2ccccc2s1 (stereo not drawn)", "target.under.test": "K562", "GI50": "24.7 µM (inactive)"}
{"compound": "Cn1cc/c(=N\\N=c2/ccn(C)c3ccccc23)c2ccccc21", "target.under.test": "K562", "GI50": "4.44 µM (inactive)"}
{"compound": "CCOC(=O)C1=C(NC)OC/C1=N\\NC(=O)c1ccccc1O", "target.under.test": "K562", "GI50": "18.6 µM (inactive)"}
{"compound": "O=[N+]([O-])c1cccc2nc3ccccc3c(NCCCn3ccnc3[N+](=O)[O-])c12", "target.under.test": "K562", "GI50": "< 0.0001 µM (active)"}
{"compound": "C=CCOC(=O)C[C@H](NC(=O)[C@H](Cc1ccc(O)cc1)NCC(F)(F)F)C(=O)OCC=C", "target.under.test": "K562", "GI50": "39.2 µM (inactive)"}
{"compound": "CC(=O)OC1C[C@@H](C)C2(C[C@H](O)c3ccoc3)C(=O)OC[C@]13C2CCC(O)C31CO1 (stereo partly drawn)", "target.under.test": "K562", "GI50": "> 100 µM (inactive)"}
{"compound": "Cc1ccc(S(=O)(=O)OCOS(=O)(=O)c2ccc(C)cc2)cc1", "target.under.test": "K562", "GI50": "> 100 µM (inactive)"}
{"compound": "CC1(C(=O)NCCN(CCNC(=O)C2(C)CC3(C)CC(C)(C2)C(=O)NC3=O)CCNC(=O)C2(C)CC3(C)CC(C)(C2)C(=O)NC3=O)CC2(C)CC(C)(C1)C(=O)NC2=O (stereo not drawn)", "target.under.test": "K562", "GI50": "> 100 µM (inactive)"}
{"compound": "O=C(/C=C/c1ccccc1)/C=C/c1ccccc1", "target.under.test": "K562", "GI50": "28.8 µM (inactive)"}
{"compound": "Cn1ncc2[nH]cnc2c1=S", "target.under.test": "K562", "GI50": "50.7 µM (inactive)"}
{"compound": "COC(=O)C1CCC(=O)NCCCCC(NC(=O)C(N)CC(=O)O)C(=O)N1 (stereo not drawn) (H-Asp-Lys-Glu-OMe; lactam 2-3; configuration not given here)", "target.under.test": "K562", "GI50": "> 100 µM (inactive)"}
{"compound": "Cc1cccc2oc3c(c(=O)c12)CC(O)C(C)(C)O3 (stereo not drawn)", "target.under.test": "K562", "GI50": "> 100 µM (inactive)"}
{"compound": "CC(C)c1[nH]nc(C(N)=O)c1/N=N/N(C)C", "target.under.test": "K562", "GI50": "79.8 µM (inactive)"}
{"compound": "COc1ccc(-c2cc(-c3ccco3)c(C#N)c(=S)n2C2OC(CO)C(O)C(O)C2O)cc1 (stereo not drawn)", "target.under.test": "K562", "GI50": "> 100 µM (inactive)"}
{"compound": "COc1cc(/C=C/c2nc(N)nnc2C)cc(OC)c1OC", "target.under.test": "K562", "GI50": "15.5 µM (inactive)"}
{"compound": "COc1ccc(NS(=O)(=O)c2ccc3ncn(NS(=O)(=O)c4ccc(I)cc4)c(=O)c3c2)cc1", "target.under.test": "K562", "GI50": "7.26 µM (inactive)"}
{"compound": "O=C(Nc1ccc(-c2cn3ccccc3n2)cc1)c1cc(Br)ccc1O", "target.under.test": "K562", "GI50": "> 100 µM (inactive)"}
{"compound": "COC(=O)CCC(C)[C@H]1CCC2C3C(C[C@H](OC(C)=O)[C@@]21C)[C@@]1(C)CCC2(C[C@H]1C[C@H]3OC(C)=O)OOC1(CCCCC1)OO2 (stereo partly drawn)", "target.under.test": "K562", "GI50": "10.3 µM (inactive)"}
{"compound": "O=C1c2cc3ccccc3cc2C2(c3ccc(Cl)cc3)N[C@H]3CCCC[C@@H]3N12 (stereo partly drawn)", "target.under.test": "K562", "GI50": "26.9 µM (inactive)"}
{"compound": "O=c1c2cccnc2cc(-c2ccccc2)n1CCO", "target.under.test": "K562", "GI50": "> 100 µM (inactive)"}
{"compound": "C(=N\\C12CC3CC(CC(C3)C1)C2)/C1CCCCC1", "target.under.test": "K562", "GI50": "> 100 µM (inactive)"}
{"compound": "COc1ccc2c(c1)N=C1CSC(c3cccc(Br)c3)N1C2 (stereo not drawn)", "target.under.test": "K562", "GI50": "3.85 µM (inactive)"}
{"compound": "Cc1cc2c(=O)cc(-c3ccc(Cl)cc3)oc2c(C(=O)O)c1C", "target.under.test": "K562", "GI50": "> 100 µM (inactive)"}
{"compound": "CCN(CCCl)c1cc(CN(C)C)cc(NC(=O)C23CCC(C(=O)Nc4cc(CN(C)C)cc(N(CC)CCCl)c4)(CC2)CC3)c1", "target.under.test": "K562", "GI50": "0.738 µM (active)"}
{"compound": "COC(=O)c1cc(C)ccc1C1CN=NC12Cc1cccc(C)c1C2=O (stereo not drawn)", "target.under.test": "K562", "GI50": "33.3 µM (inactive)"}
{"compound": "CC(=O)OCC1=C(C(=O)O)N2C(=O)C(NC(=O)CSc3ccncc3)C2SC1 (stereo not drawn)", "target.under.test": "K562", "GI50": "> 100 µM (inactive)"}
{"compound": "Cc1ccc(C)c(N2C(=O)C(=O)C(c3nc4ccccc4s3)/C(=N\\c3cccc4c(=O)[nH][nH]c(=O)c34)C2=O)c1 (stereo not drawn)", "target.under.test": "K562", "GI50": "> 100 µM (inactive)"}

Values were extracted from ChEMBL document CHEMBL1201862.
